- measurement.protocol: yeast transport mutant growth inhibition pilot in 384-well plates, post-Golgi transport modulator project (AID 636)
- condition.info: absorbance 615 nm, about 18 h
Calls of active or inactive are those of the source. Rule as the data show it: active = inhibition above about 31%; inactive = the rest.
Outcomes: active, inactive

# molecule, category
rows = [
    ("COc1ccccc1N1CCN(CC(O)c2ccc3cc[nH]c3c2)CC1 (stereo not given)", "inactive"),
    ("CCC(CC)C(=O)NCCc1cc2ccc(C)cc2[nH]c1=O", "inactive"),
    ("CN1CCN(C2=C(Cl)C(=O)N(c3cccc(Cl)c3)C2=O)CC1", "inactive"),
    ("Cc1nnc(SCC(=O)Nc2sc3c(c2C#N)CCCC3)[nH]c1=O", "inactive"),
    ("O=C(c1ccc2nc(N3CCCCC3)sc2c1)N1CCN(c2ccccn2)CC1", "inactive"),
    ("COc1cccc(NC(=O)c2nc3nc(C)cc(C(F)F)n3n2)c1", "inactive"),
    ("COCCn1c(SCC(=O)N2CCc3ccccc32)nc2c(c1=O)SC(C)C2 (stereo not given)", "inactive"),
    ("CC(C)c1ccc(-c2nc(N3CCCCC3)[nH]c(=O)c2C#N)cc1", "inactive"),
    ("COc1ccc(NC(=O)C2CCCN2S(=O)(=O)c2cccc3cccnc23)c(OC)c1 (stereo not given)", "active"),
    ("O=C(NCCN1CCN(c2ccccc2)CC1)c1ccc(NC(=O)C2CCCO2)cc1 (stereo not given)", "inactive"),
]

---

- measurement.protocol: Her2 expression decrease, cell viability multiplex – SKBR3 breast tumor cells, AlphaScreen, ATP viability, primary screen (AID 461);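 also: percent of carrier control wells set as 100% viability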
- condition.info: SKBR3 Her2 protein level, 18-24 h, measured here: SKBR3 viability, ATP luminescence, at 10 µM

# compound, unit.of.measure, viability
measured = [
    ("COc1ccc(C2CC(c3ccc(Cl)cc3Cl)n3nc(N)nc3N2)cc1 (stereo unspecified)", "%", 95),
    ("COc1cccc(C2C(C(=O)c3ccc(C)o3)=C(O)C(=O)N2CCCN(C)C)c1 (stereo unspecified)", "%", 99.5),
    ("COc1ccc(OCCSc2nc3ccccc3n2CC(=O)O)cc1", "%", 92.5),
    ("O=C(Nc1c(C(=O)NCc2ccco2)cnn1-c1ccccc1)c1ccc(F)cc1", "%", 95.5),
    ("CCOc1ccc(-c2nnc(SCC(=O)N3CCN(c4ccccc4)CC3)o2)cc1", "%", 103),
    ("CCCOc1ccc(NC2=CC(=O)CC(C)(C)C2)cc1", "%", 100),
]

---

- measurement.protocol: S. cerevisiae growth inhibition in permissive medium (OD615), pilot counter-assay for S. cerevisiae lifespan shortening project, permissive growth control (AID 705)
- condition.info: OD615, 24 h, at 10 µM, stronger effect = higher value
Item-by-item account of growth inhibition

# compound, unit.of.measure, growth inhibition
data = [
    ("Cc1cc(NC(=O)c2cccc(S(=O)(=O)N3CC(c4ccccc4)CC3=O)c2)no1 (stereo not given)", "%", -15.3),
    ("COc1ccc(OCc2nnc3n2N=C(c2ccc(C)cc2)CS3)cc1", "%", -3.36),
    ("Cc1ccc(C(=O)Nc2ccccc2NC(=O)c2ccc(C)o2)o1", "%", -1.73),
    ("O=C(O)CN1C(=O)C2C3C=CC(C3)C2C1=O (stereo not given)", "%", -14.3),
    ("CCOC(=O)N1CCN(C(=O)CSc2nnc(COc3ccccc3)o2)CC1", "%", -8.08),
    ("Oc1ccc(Cl)cc1-c1cc(-c2ccccc2)n[nH]1", "%", -1.5),
    ("O=C(NC1CC1)c1ccc(CSCc2cccc(F)c2)o1", "%", 3.53),
    ("CC1CCCN(Cc2nc3c(c(=O)n(C)c(=O)n3C)n2CC(=O)c2ccccc2)C1 (stereo not given)", "%", -8.04),
    ("CCN(CC)CCNC(=O)c1ccc(CS(=O)(=O)c2ccc(Br)cc2)o1", "%", -12.3),
    ("CCn1cc(C(=O)NCC2CCCO2)c(=O)c2cc(S(=O)(=O)N(C)C3CCCCC3)ccc21 (stereo not given)", "%", -2.38),
]

The reported numbers originate from PubChem BioAssay.
